Molecular target: T1, recombinant human CD3 epsilon/gamma heterodimer (human, UniProt P07766 23-126; P09693 23-116)
T1 construct: Recombinant protein in solution (200-50 nM) in the Octet assay; also called hCD3 E/G
T1 sequence (P07766 23-126, chain 1 of 2): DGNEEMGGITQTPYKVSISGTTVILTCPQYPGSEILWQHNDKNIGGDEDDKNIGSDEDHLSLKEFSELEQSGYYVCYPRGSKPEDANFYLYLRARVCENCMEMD
T1 sequence (P09693 23-116, chain 2 of 2): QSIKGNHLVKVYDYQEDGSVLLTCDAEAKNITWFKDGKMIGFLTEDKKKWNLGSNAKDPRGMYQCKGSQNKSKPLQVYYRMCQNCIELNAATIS
Experiment: Octet BLI, mAb on FAB2G sensor, hCD3 E/G 200-50 nM; R^2 1.00
reported property: kon
Number first, unit second.

- binder: "ABL-CD3-15 (antibody, V domains shown, Chimeric hybridoma mAb: human V, CH1, upper hinge; mouse middle hinge, CH2, CH3) VH: EVQLVESGGGLVKPGGSLRLSCAASGFNCSSYSMNWVRQAPGKGLEWVSSISRSSNYIYYADSVKGRFSISRDDAKNSLYLQMNSLRAEDTAVYYCARERWIQLYSDYWGQGILVTVSS VL: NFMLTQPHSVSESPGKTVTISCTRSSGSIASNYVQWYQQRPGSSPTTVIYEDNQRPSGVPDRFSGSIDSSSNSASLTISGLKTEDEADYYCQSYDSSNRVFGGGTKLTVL"
  kon: "173000 M⁻¹ s⁻¹"
- binder: "ABL-CD3-19 (antibody, V domains shown, Chimeric hybridoma mAb: human V, CH1, upper hinge; mouse middle hinge, CH2, CH3) VH: EVQLVESGGGLVKPGGSLRLSCAASGFTLSSYSMNWVRQAPGKGLEWVSSISRSSSYIYYADSVKGRFTISRDNAKNSLYLQMNSLRAEDTAVYYCARERWELLYFDYWGQGTLVTVSS VL: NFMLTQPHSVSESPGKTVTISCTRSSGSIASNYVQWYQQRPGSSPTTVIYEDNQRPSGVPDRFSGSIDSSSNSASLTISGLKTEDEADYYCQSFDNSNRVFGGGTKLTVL"
  kon: "106000 M⁻¹ s⁻¹"
- binder: "ABL-CD3-25 (antibody, V domains shown, Chimeric hybridoma mAb: human V, CH1, upper hinge; mouse middle hinge, CH2, CH3) VH: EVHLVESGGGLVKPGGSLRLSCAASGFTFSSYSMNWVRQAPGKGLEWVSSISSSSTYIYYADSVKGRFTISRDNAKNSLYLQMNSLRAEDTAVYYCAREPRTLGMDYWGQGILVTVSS VL: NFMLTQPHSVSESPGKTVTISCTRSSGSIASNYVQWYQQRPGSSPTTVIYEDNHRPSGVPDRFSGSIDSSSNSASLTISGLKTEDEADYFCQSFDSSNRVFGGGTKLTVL"
  kon: "96600 M⁻¹ s⁻¹"

Please look at the following binder next.
Query: Bench note: what kon did ABL-CD3-6 (antibody, V domains shown, Chimeric hybridoma mAb: human V, CH1, upper hinge; mouse middle hinge, CH2, CH3) VH: EVQLVDSGGGLVKPGGSLRLSCAASGFTFSSYSMNWVRQAPGKGLEWVSSISSRGSYRNYADSVKGRFTISRDNAKNSLYLQMNSLRAEDTAVYYCARDRRELLLDCWGQGTLVTVSS VL: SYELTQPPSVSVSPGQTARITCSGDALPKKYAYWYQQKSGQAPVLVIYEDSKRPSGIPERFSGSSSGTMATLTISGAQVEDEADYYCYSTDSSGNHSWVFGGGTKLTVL show?
Response: 566000 M⁻¹ s⁻¹
